biological target: MAO-B (Homo sapiens, UniProt P27338); construct: purchased Sigma-Aldrich (St. Louis, MO, USA); assay: biochemical; format: biochemical; conditions: benzylamine 0.3 mM; highest concentration 40 µM; read-out: IC50 (µM) MAO-B
measure name: IC50 (µM)
State the answer as a number, implicitly in µM.

Guide cases for IC50, answers given:
1. O=C(Cn1nc(N2CCN(c3cccc(C(F)(F)F)c3)CC2)ccc1=O)NN=Cc1ccc(F)cc1: 1
2. COc1cccc(N2CCN(c3ccc(=O)n(CC(=O)NN=Cc4ccc(F)cc4)n3)CC2)c1: 2.11

Record COc1cccc(N2CCN(c3ccc(=O)n(CC(=O)NN=Cc4ccc(C)cc4)n3)CC2)c1 , field IC50: 4.42

response.value for COc1cccc(N2CCN(c3ccc(=O)n(CC(=O)NN=Cc4ccc(Br)cc4)n3)CC2)c1 (field: IC50) = 15.1

----------
biological target: MAO-B (Homo sapiens); construct: purchased Sigma-Aldrich (St. Louis, MO, USA); assay: biochemical; format: biochemical; details: MAO-B versus MAO-A
measure name: SI (selectivity index for MAO-B compared with MAO-A)
Please state the value as a number alone, without comment.

1. COc1cccc(N2CCN(c3ccc(=O)n(CC(=O)NN=Cc4ccc(Br)cc4)n3)CC2)c1 [TR6]: 0.81
2. COc1cccc(N2CCN(c3ccc(=O)n(CC(=O)NN=Cc4ccc(F)cc4)n3)CC2)c1 [TR3]: 9.31

response.value for Cc1ccc(C=NNC(=O)Cn2nc(N3CCN(c4cccc(C(F)(F)F)c4)CC3)ccc2=O)cc1 [TR11] (field: SI (selectivity index for MAO-B compared with MAO-A)) = 0.57

Input O=C(Cn1nc(N2CCN(c3cccc(C(F)(F)F)c3)CC2)ccc1=O)NN=Cc1ccc(Cl)cc1 [TR8] . Output SI (selectivity index for MAO-B compared with MAO-A): 0.60

----------
target: Recombinant human MAO-A (Homo sapiens, UniProt P21397); construct: purchased Sigma-Aldrich (St. Louis, MO, USA); experiment: biochemical; settings: 10 µM compound; mean ± standard error of duplicate or triple studies; read-out: Residual Activity at 10 µM (%) MAO-A
Sequence (P21397 whole entry): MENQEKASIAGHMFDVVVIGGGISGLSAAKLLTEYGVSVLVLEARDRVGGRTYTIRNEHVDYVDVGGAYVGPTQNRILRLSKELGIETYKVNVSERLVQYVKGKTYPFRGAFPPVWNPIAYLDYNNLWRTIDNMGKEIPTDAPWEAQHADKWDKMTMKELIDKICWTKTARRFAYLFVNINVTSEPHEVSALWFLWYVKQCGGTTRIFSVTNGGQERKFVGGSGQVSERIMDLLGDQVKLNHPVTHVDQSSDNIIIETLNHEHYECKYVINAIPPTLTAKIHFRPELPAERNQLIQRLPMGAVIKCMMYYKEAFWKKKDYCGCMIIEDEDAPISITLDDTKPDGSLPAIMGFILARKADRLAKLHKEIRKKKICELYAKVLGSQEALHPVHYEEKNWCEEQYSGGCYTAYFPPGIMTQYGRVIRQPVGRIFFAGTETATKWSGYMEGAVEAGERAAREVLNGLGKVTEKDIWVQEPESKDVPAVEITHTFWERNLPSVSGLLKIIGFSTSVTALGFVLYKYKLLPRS
measure name: remaining activity at 10 µM (%)
Report the figure in % without appending any unit label.

1. O=C(Cn1nc(N2CCN(c3cccc(C(F)(F)F)c3)CC2)ccc1=O)NN=Cc1ccc(F)cc1: 72.3
2. Cc1ccc(C=NNC(=O)Cn2nc(N3CCN(c4cccc(C(F)(F)F)c4)CC3)ccc2=O)cc1: 55.6
3. COc1ccc(C=NNC(=O)Cn2nc(N3CCN(c4cccc(OC)c4)CC3)ccc2=O)cc1: 61
4. O=C(Cn1nc(N2CCOCC2)ccc1=O)NN=Cc1ccc(Cl)cc1: 85
5. CN(C)c1ccc(C=NNC(=O)Cn2nc(N3CCN(c4cccc(C(F)(F)F)c4)CC3)ccc2=O)cc1: 52.5
6. O=C(Cn1nc(N2CCN(c3cccc(C(F)(F)F)c3)CC2)ccc1=O)NN=Cc1ccc(Cl)cc1: 52.9

Value of remaining activity at 10 µM reported for the compound O=C(Cn1nc(N2CCN(c3cccc(C(F)(F)F)c3)CC2)ccc1=O)NN=Cc1ccccc1 is 55.4

----------
target: MAO-B (Homo sapiens); construct: purchased Sigma-Aldrich (St. Louis, MO, USA); assay: biochemical; format: biochemical; details: MAO-B versus MAO-A
Documented SI (selectivity index for MAO-B compared with MAO-A) across a set of compounds

Known SI (selectivity index for MAO-B compared with MAO-A) results, listed for orientation:
1. CN(C)c1ccc(C=NNC(=O)Cn2nc(N3CCN(c4cccc(C(F)(F)F)c4)CC3)ccc2=O)cc1: <0.37
2. O=C(Cn1nc(N2CCN(c3cccc(C(F)(F)F)c3)CC2)ccc1=O)NN=Cc1ccc(Br)cc1: <0.78
3. COc1ccc(C=NNC(=O)Cn2nc(N3CCN(c4cccc(C(F)(F)F)c4)CC3)ccc2=O)cc1: <0.33
4. O=C(Cn1nc(N2CCN(c3cccc(C(F)(F)F)c3)CC2)ccc1=O)NN=Cc1ccccc1: <0.36
5. COc1cccc(N2CCN(c3ccc(=O)n(CC(=O)NN=Cc4ccc(C)cc4)n3)CC2)c1: 4.12

GET /value?item= COc1ccc(C=NNC(=O)Cn2nc(N3CCN(c4cccc(OC)c4)CC3)ccc2=O)cc1 &field=SI (selectivity index for MAO-B compared with MAO-A) returns <0.41

Per the record, COc1cccc(N2CCN(c3ccc(=O)n(CC(=O)NN=Cc4ccccc4)n3)CC2)c1 has SI (selectivity index for MAO-B compared with MAO-A) of <0.43

Memo: O=C(Cn1nc(N2CCN(c3cccc(C(F)(F)F)c3)CC2)ccc1=O)NN=Cc1ccc(F)cc1 , reported SI (selectivity index for MAO-B compared with MAO-A): 17.08

----------
assay: in vitro; conditions: PAMPA
As shown below, each of these compounds has a reported Papp value.

1. O=C(Cn1nc(N2CCOCC2)ccc1=O)NN=Cc1ccc(Cl)cc1: 10.6 ×10⁻⁶ cm/s

Let's switch to this compound now.
Form field Papp, entry COc1cccc(N2CCN(c3ccc(=O)n(CC(=O)NN=Cc4ccc(Cl)cc4)n3)CC2)c1 : 9.33 ×10⁻⁶ cm/s

----------
Molecular target: MAO-B (Homo sapiens)
Construct: purchased Sigma-Aldrich (St. Louis, MO, USA)
Sequence (P27338 1-520): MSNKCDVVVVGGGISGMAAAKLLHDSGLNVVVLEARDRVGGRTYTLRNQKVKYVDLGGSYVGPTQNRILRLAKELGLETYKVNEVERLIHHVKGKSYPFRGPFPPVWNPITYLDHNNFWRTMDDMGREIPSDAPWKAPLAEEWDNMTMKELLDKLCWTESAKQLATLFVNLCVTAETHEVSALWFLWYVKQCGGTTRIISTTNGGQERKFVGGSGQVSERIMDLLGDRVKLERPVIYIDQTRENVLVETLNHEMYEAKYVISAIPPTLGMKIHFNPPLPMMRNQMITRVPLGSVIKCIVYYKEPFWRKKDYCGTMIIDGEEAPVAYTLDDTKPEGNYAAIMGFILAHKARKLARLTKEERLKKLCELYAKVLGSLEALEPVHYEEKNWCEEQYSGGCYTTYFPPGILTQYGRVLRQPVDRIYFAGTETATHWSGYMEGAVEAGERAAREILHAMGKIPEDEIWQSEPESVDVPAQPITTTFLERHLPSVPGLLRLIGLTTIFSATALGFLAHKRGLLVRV
Experiment: biochemical
Assay type: biochemical
Settings: 10 µM compound; mean ± standard error of duplicate or triple studies; read-out: Residual Activity at 10 µM (%) MAO-B
Protocol: The IC50 values were determined by measuring the residual activity at different concentrations of the compounds and by using GraphPad Prism software 5.0. […] BACE1 inhibitory activities were tested by the BACE1 activity detection kit. The assay method was described previously. Recombinant human MAO-A and MAO-B, AChE from Electrophorus electricus, BChE from equine serum, BACE1, and their substrates and reference inhibitors were purchased from Sigma-Aldrich (St. Louis, MO, USA). […]
Catalogue of remaining activity at 10 µM readings, one per entry.
Report as a plain number; the unit % is understood.

Per the reported MAO-B (Homo sapiens) data, O=C(Cn1nc(N2CCOCC2)ccc1=O)NN=Cc1ccccc1 [TR14] has remaining activity at 10 µM of 107

Result for COc1cccc(N2CCN(c3ccc(=O)n(CC(=O)NN=Cc4ccc(Br)cc4)n3)CC2)c1 [TR6] , tested on MAO-B (Homo sapiens), remaining activity at 10 µM: 70.2

For COc1cccc(N2CCN(c3ccc(=O)n(CC(=O)NN=Cc4ccc(Cl)cc4)n3)CC2)c1 [TR2] on MAO-B (Homo sapiens), measured remaining activity at 10 µM was -4.37

The compound O=C(Cn1nc(N2CCN(c3cccc(C(F)(F)F)c3)CC2)ccc1=O)NN=Cc1ccccc1 [TR7] , when measured on MAO-B (Homo sapiens), yielded remaining activity at 10 µM of 90.7

remaining activity at 10 µM of COc1cccc(N2CCN(c3ccc(=O)n(CC(=O)NN=Cc4ccccc4)n3)CC2)c1 [TR1] , assay on MAO-B (Homo sapiens), is 80.5

Item CN(C)c1ccc(C=NNC(=O)Cn2nc(N3CCN(c4cccc(C(F)(F)F)c4)CC3)ccc2=O)cc1 [TR12] was tested on MAO-B (Homo sapiens); the reported remaining activity at 10 µM is 85.3

O=C(Cn1nc(N2CCN(c3cccc(C(F)(F)F)c3)CC2)ccc1=O)NN=Cc1ccc(Br)cc1 [TR13] on MAO-B (Homo sapiens) gives remaining activity at 10 µM = 100

Kindly note: MAO-B (Homo sapiens), COc1cccc(N2CCN(c3ccc(=O)n(CC(=O)NN=Cc4ccc(C)cc4)n3)CC2)c1 [TR5] , remaining activity at 10 µM value reported: 45.6

remaining activity at 10 µM of O=C(Cn1nc(N2CCOCC2)ccc1=O)NN=Cc1ccc(Cl)cc1 [TR16] , assay on MAO-B (Homo sapiens), is 13.1

Lab entry: MAO-B (Homo sapiens) assay, compound Cc1ccc(C=NNC(=O)Cn2nc(N3CCN(c4cccc(C(F)(F)F)c4)CC3)ccc2=O)cc1 [TR11] , remaining activity at 10 µM = 83.9

Known value: MAO-B (Homo sapiens) remaining activity at 10 µM of the compound O=C(Cn1nc(N2CCOCC2)ccc1=O)NN=Cc1ccc(F)cc1 [TR15] equals 12.5

The value of remaining activity at 10 µM recorded for COc1ccc(C=NNC(=O)Cn2nc(N3CCN(c4cccc(C(F)(F)F)c4)CC3)ccc2=O)cc1 [TR10] when tested on MAO-B (Homo sapiens) reads 91.9

Summary line: O=C(Cn1nc(N2CCN(c3cccc(C(F)(F)F)c3)CC2)ccc1=O)NN=Cc1ccc(Cl)cc1 [TR8] , MAO-B (Homo sapiens), reported remaining activity at 10 µM = 69.1

Item COc1ccc(C=NNC(=O)Cn2nc(N3CCN(c4cccc(OC)c4)CC3)ccc2=O)cc1 [TR4] ; assay system MAO-B (Homo sapiens); remaining activity at 10 µM reported as 88.6

For the compound COc1cccc(N2CCN(c3ccc(=O)n(CC(=O)NN=Cc4ccc(F)cc4)n3)CC2)c1 [TR3] , the measured remaining activity at 10 µM on MAO-B (Homo sapiens) was 20.1

# O=C(Cn1nc(N2CCN(c3cccc(C(F)(F)F)c3)CC2)ccc1=O)NN=Cc1ccc(F)cc1 [TR9] with MAO-B (Homo sapiens): remaining activity at 10 µM is 46.5
